Tested on: DMT1-deficient Caco-2 cells
protocol.notes: shDMT1-Caco2 55Fe transport assay
Format: cell-based
condition.info: Caco-2
Description: Assay 2: shDMT1-Caco2 ^55Fe Transport Assay to Assess Ligand Ability in Transporting Fe (III) Cells: DMT1-deficient Caco-2 cells (alias: “shDMT1,” or “4A” cells) were from Grillo et al. Science, 2017, and were cryopreserved in liquid nitrogen prior to use. […] On the assay day, the TEER values were measured and the average TEER value was obtained. […] For each scintillation vial, the radioactivity (CPM) was determined with liquid scintillation counter LS6500. […]
Caco2 shDMT1 transport FC @ 3 μM, 4 h values, listed per item

Request the reported Caco2 shDMT1 transport FC @ 3 μM, 4 h associated with O=c1ccccc(C2CCCO2)c1S (stereo not shown)
0.01-0.5

Request the reported Caco2 shDMT1 transport FC @ 3 μM, 4 h associated with CCc1ccc(C)c(=O)c(O)c1
0.5-1

Request the reported Caco2 shDMT1 transport FC @ 3 μM, 4 h associated with Cc1c(O)c(=O)ccn1C [deferiprone, reference compound]
0.02-0.03

Request the reported Caco2 shDMT1 transport FC @ 3 μM, 4 h associated with O=c1ccccc(OCC2CC2)c1O [drawing 260]
1-5

Request the reported Caco2 shDMT1 transport FC @ 3 μM, 4 h associated with CCOc1ccc(O)c(=O)cc1
0.01-0.5

Request the reported Caco2 shDMT1 transport FC @ 3 μM, 4 h associated with Cc1cccc(C(C)C)c(O)c1=O [drawing 205]
0.5-1

Request the reported Caco2 shDMT1 transport FC @ 3 μM, 4 h associated with O=c1ccccc([C@@H]2CCCO2)c1O
0.1-5

Request the reported Caco2 shDMT1 transport FC @ 3 μM, 4 h associated with O=c1cccc(C2CC3CCC(C2)O3)cc1O (stereo not shown) [drawing 181]
0.01-0.5

Request the reported Caco2 shDMT1 transport FC @ 3 μM, 4 h associated with CCc1ccc(O)c(=O)c(C)c1
1-5

Request the reported Caco2 shDMT1 transport FC @ 3 μM, 4 h associated with CC(C)c1cccc(F)c(=O)c1O [drawing 179]
0.01-0.5

Request the reported Caco2 shDMT1 transport FC @ 3 μM, 4 h associated with Cc1cccc(C)c(=O)c1O
1-5

Request the reported Caco2 shDMT1 transport FC @ 3 μM, 4 h associated with COc1cccc(=O)c(O)c1
0.01-0.5

Request the reported Caco2 shDMT1 transport FC @ 3 μM, 4 h associated with CCOC(=O)N1CCC(c2ccc(O)c(=O)cc2)CC1
0.01-0.5

Request the reported Caco2 shDMT1 transport FC @ 3 μM, 4 h associated with O=c1c(F)cccc(C2CCCO2)c1O (stereo not shown)
0.01-0.5

Request the reported Caco2 shDMT1 transport FC @ 3 μM, 4 h associated with Cc1cc(C(C)C)ccc(O)c1=O [drawing 203]
1-5

Request the reported Caco2 shDMT1 transport FC @ 3 μM, 4 h associated with CC(C)Oc1ccc(O)c(=O)cc1
0.01-0.5

// provenance: patent US20230406803A1
